Known cell count rep 1 of a selection of molecules
test system: HeLa cells; test: Compound screen by flow cytometry: HeLa cell count as surrogate readout of cell viability (z-scoreHeLa); assay type: cell-based, human; conditions: PKIS compounds raw data; replicate 1; HeLa cell count; also: test concentration or dose not given here
Recorded Endpoint: cell count rep 1

[
  {
    "Molecule": "Cc1cccc(-c2nc(Nc3cccc(C(N)=O)c3)c3ccccc3n2)n1 [GW876019X]",
    "Result Value": 2511
  },
  {
    "Molecule": "NS(=O)(=O)c1ccc(N/N=C2\\C(=O)Nc3ccc(Cl)cc32)cc1 [GW280670X]",
    "Result Value": 4621
  },
  {
    "Molecule": "Cn1cncc1-c1cc2c(Nc3ccc(OCc4ccccc4)cc3)ncnc2cn1 [GW281179X]",
    "Result Value": 2614
  },
  {
    "Molecule": "Nc1nonc1-c1nc2cnccc2n1C1CCCCC1",
    "Result Value": 2677
  },
  {
    "Molecule": "COC(=O)c1ccc2c(c1)C(=Cc1cc(Br)c(O)c(Br)c1)C(=O)N2 [GW405841X]",
    "Result Value": 5478
  },
  {
    "Molecule": "Cc1ccc(S(=O)(=O)Nc2ccc(Nc3nccc(Nc4cccc5[nH]ncc45)n3)cc2)cc1 [GSK581271A]",
    "Result Value": 6603
  },
  {
    "Molecule": "c1ccc(Cc2nc3ccc(Nc4ncnc5ccccc45)cc3[nH]2)cc1 [GR269666A]",
    "Result Value": 4886
  },
  {
    "Molecule": "Fc1cccc(COc2ccc(Nc3ncnc4cc(-c5ccc[nH]5)sc34)cc2Cl)c1 [GW693881A]",
    "Result Value": 5481
  },
  {
    "Molecule": "Cc1cccc(Cn2ccn3c(=O)cc(N4CCOCC4)nc23)c1 [GSK2297542A]",
    "Result Value": 6792
  }
]
